Test system: SIRPα signalling induced by Raji cells
assay_remarks: Assay B: SIRPα signalling assay using Raji cells
Assay type: cell-based
particulars: Homo sapiens, read-out: Inhibition of SIRPα signalling induced by Raji cells: IC50
Method: Bioassay reagent 1 of the PathHunter Bioassay detection kit (DiscoverX 93-0001) was added to each well of the plate using a multichannel pipette followed by a 15 min incubation at room temperature. […] The analysis of the data was performed using the luminescence signal generated by betagalactosidase in the PathHunter reporter cell line. The luminescence measurement was done using a Pherastar Multi-Mode Reader.
Reported log10(IC50) by item:
Annotation: log10 of IC50, nM basis.

Examples with answers:
[
  {
    "compound": "Cn1cc(-c2cc(C#N)c(N3CCC(F)(c4nncn4C)CC3)c(-c3ccc(F)nc3)c2)cn1",
    "log10(IC50)": 1.72
  },
  {
    "compound": "Cn1cc(-c2ccc(-c3ccc(F)nc3)c(N3CCC(c4nncn4C)CC3)c2C#N)cn1 [Compound 35, reference compound]",
    "log10(IC50)": 1.45
  },
  {
    "compound": "Cc1nn(C)cc1-c1cc(C#N)c(N2CCC(F)(c3nncn3C)CC2)c(-c2ccc(F)nc2)c1",
    "log10(IC50)": 1.95
  },
  {
    "compound": "Cc1nn(C)c(C)c1-c1cc(C#N)c(N2CCC(F)(c3nncn3C)CC2)c(-c2ccc(F)nc2)c1",
    "log10(IC50)": 2.52
  }
]

[ask] Observed log10(IC50) on SIRPα signalling induced by Raji cells for Cn1cnnc1C1(F)CCN(c2c(C#N)cc(-c3cnc(C(F)(F)F)nc3)cc2-c2ccc(F)nc2)CC1 , please.
[reply] 2.03

[ask] Observed log10(IC50) on SIRPα signalling induced by Raji cells for Cn1cnnc1C1(F)CCN(c2c(C#N)cc(-c3cccnc3)cc2-c2ccc(F)nc2)CC1 , please.
[reply] 2.14

[ask] Observed log10(IC50) on SIRPα signalling induced by Raji cells for Cc1ncc(-c2cc(C#N)c(N3CCC(F)(c4nncn4C)CC3)c(-c3ccc(F)nc3)c2)cn1 , please.
[reply] 2.00

====

System: murine hepatocytes
assay_remarks: Assay E: Stability in murine hepatocytes
Type: in vitro ADME, mouse
particulars: 1 μM
Method: The metabolic degradation of the test compound is assayed in a murine hepatocyte suspension. […] CLint is calculated as follows CL_[…]=Dose/AUC=(C0/CD)/(AUD+clast/k)×1000/60. […] The calculated in vitro hepatic intrinsic clearance can be scaled up to the intrinsic in vivo hepatic Clearance and used to predict hepatic in vivo blood clearance (CL) by the use of a liver model (well stirred model). […]
outcome_measure: Mouse Hepatocyte Stability QH

Examples with answers:
[
  {
    "compound": "Cn1c(N)nnc1C1CCN(c2c(C#N)cccc2-c2ccc(F)nc2)CC1 [Compound 14, reference compound]",
    "outcome_measure": "Mouse Hepatocyte Stability QH",
    "measured_value": "31%"
  },
  {
    "compound": "Cn1cnnc1C1CCN(c2c(-c3ccc(F)nc3)ccc(-c3ccnc(N)c3)c2C#N)CC1 [Compound 44, reference compound]",
    "outcome_measure": "Mouse Hepatocyte Stability QH",
    "measured_value": "65%"
  },
  {
    "compound": "Cn1cnnc1C1(F)CCN(c2c(C#N)cc(-c3ccnnc3)cc2-c2ccc(F)nc2)CC1",
    "outcome_measure": "Mouse Hepatocyte Stability QH",
    "measured_value": "20%"
  }
]

// next item, Mouse Hepatocyte Stability QH requested
[ask] Tell me the measured Mouse Hepatocyte Stability QH of Cn1cnnc1C1(F)CCN(c2c(C#N)cc(-c3cccnc3)cc2-c2ccc(F)nc2)CC1 , please.
[reply] 35%

====

System: murine hepatocytes
assay_remarks: Assay E: Stability in murine hepatocytes
Assay type: in vitro ADME, mouse
particulars: 1 μM
outcome_measure: Mouse Hepatocyte Stability QH (%)
Report as a plain number; the unit % is understood.

Examples with answers:
[
  {
    "molecule": "Cc1ncc(-c2cc(C#N)c(N3CCC(F)(c4nncn4C)CC3)c(-c3ccc(F)nc3)c2)cn1",
    "units_symbol": "%",
    "measured_value": 48
  },
  {
    "molecule": "Cn1cnnc1C1CCN(c2c(C#N)cccc2-c2ccc(F)nc2)CC1 [(1)/QP5020, reference compound]",
    "units_symbol": "%",
    "measured_value": 82
  },
  {
    "molecule": "Cc1nn(C)cc1-c1cc(C#N)c(N2CCC(F)(c3nncn3C)CC2)c(-c2ccc(F)nc2)c1",
    "units_symbol": "%",
    "measured_value": 21
  }
]

// next item, Mouse Hepatocyte Stability QH requested
[ask] Tell me the measured Mouse Hepatocyte Stability QH of Cn1cc(-c2ccc(-c3ccc(F)nc3)c(N3CCC(c4nncn4C)CC3)c2C#N)cn1 [Compound 35, reference compound] , please.
[reply] 16
